- TEST SUMMARY: Pharmacokinetics of everolimus in whole blood (LC-MS, non-compartmental)
- Format: in vivo, human
- TEST CONTEXT: human, whole blood, po, 15 mg, everolimus 15 mg oral alone; dose level 1; n=3; mean (s.d.)
VALUE KIND: Cmax (ng/mL)
Report as a plain number; the unit ng/mL is understood.

Cmax reading for `CO[C@H]1C[C@@H]2CC[C@@H](C)[C@@](O)(O2)C(=O)C(=O)N2CCCC[C@H]2C(=O)O[C@H]([C@H](C)C[C@@H]2CC[C@@H](OCCO)[C@H](OC)C2)CC(=O)[C@H](C)/C=C(\C)[C@@H](O)[C@@H](OC)C(=O)[C@H](C)C[C@H](C)/C=C/C=C/C=C/1C` : 75.2
